Catalogue of protein stability index values
B1: RIT1 (parent)
chain: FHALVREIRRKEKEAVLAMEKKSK

Variants of: B1
Experiment: protein stability index of a GFP-peptide fusion (GPS, HEK-293T) (PSI 1-6); higher = more stable;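 also: lentivirally expressed fusions sorted by FACS into six bins by GFP to DsRed ratio, PSI derived from sequencing read proportions per bin multiplied by bin number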
Settings: c terminus: a fixed tail appended
Output: the number by itself.

>>> df
   variantlabel  measurement
0           F1I         2.93
1           F1S         4.14
2           H2W         3.04
3          A15F         1.91
4          M19E         1.88
5           A3N         1.87
6          K11C         2.28
7          A15C          2.1
8          E20T         1.92
9          L17N         2.18

Exercise: Tell me the measured protein stability index of `M19A` , please.
Solution: 1.68

Exercise: `F1E` , same question.
Solution: 5.2

Exercise: `I8F` , same question.
Solution: 2.34

Exercise: `R6V` , same question.
Solution: 1.75

Exercise: `L17Y` , same question.
Solution: 2.05

Exercise: `E14N` , same question.
Solution: 1.62

Exercise: `K24M` , same question.
Solution: 1.78

Exercise: `K21Y` , same question.
Solution: 1.56

Exercise: `A18V` , same question.
Solution: 1.84

Exercise: `F1W` , same question.
Solution: 2.43

Exercise: `F1G` , same question.
Solution: 4.36

Exercise: `V16H` , same question.
Solution: 2.47

Exercise: `I8Y` , same question.
Solution: 2.01

Exercise: `K22P` , same question.
Solution: 1.93

Exercise: `R6A` , same question.
Solution: 1.34

Exercise: `V5R` , same question.
Solution: 2.27

Exercise: `E12A` , same question.
Solution: 3.79

Exercise: `V5H` , same question.
Solution: 1.97

Exercise: `R6H` , same question.
Solution: 1.42

Exercise: `E7C` , same question.
Solution: 2.16

Exercise: `K21D` , same question.
Solution: 2.14
